The following molecules each carry a recorded pKi for D(3) dopamine receptor (Homo sapiens, UniProt P35462).
Units for pKi: none; it is -log10 of a concentration expressed in mol/L.

[
  {
    "smiles_input": "N#CC(C#N)=Cc1ccc(CN2CCN(c3ccccc3)CC2)[nH]1",
    "pKi": 5.28
  }
]

Now consider a different molecule.
Ask: Value wanted: pKi (D(3) dopamine receptor (Homo sapiens, UniProt P35462)) of entry N#CC(C#N)=Cc1ccc(CN2CCN(c3ccc(Cl)cc3)CC2)[nH]1
Result: 4.51

====

Target: D(4) dopamine receptor (Homo sapiens, UniProt P21917)
Sequence (P21917 whole entry): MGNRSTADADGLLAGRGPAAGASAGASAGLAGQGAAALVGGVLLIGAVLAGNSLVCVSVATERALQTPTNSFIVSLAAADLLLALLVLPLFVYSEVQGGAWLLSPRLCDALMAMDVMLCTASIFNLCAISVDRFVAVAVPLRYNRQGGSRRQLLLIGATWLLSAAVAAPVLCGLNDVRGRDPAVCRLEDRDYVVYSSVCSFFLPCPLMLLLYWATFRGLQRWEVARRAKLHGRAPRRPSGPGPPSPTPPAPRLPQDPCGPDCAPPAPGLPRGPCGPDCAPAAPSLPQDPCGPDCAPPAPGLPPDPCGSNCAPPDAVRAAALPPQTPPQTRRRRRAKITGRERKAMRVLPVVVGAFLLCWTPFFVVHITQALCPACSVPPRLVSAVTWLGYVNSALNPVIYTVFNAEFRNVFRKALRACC
measured_attribute: Ki (nM)
Field format: number, assumed nM, no unit text.

Ask: Which Ki is reported for this molecule? N#CC(C#N)=Cc1ccc(CN2CCN(c3ccc(Cl)cc3)CC2)[nH]1
Result: 11
